test system: human-derived tracheal/bronchial epithelial cells (EpiAirway Tissue Model); assay: in vitro; conditions: human, 1 h, 1000 μM
METRIC NAME: Mean % Relative Cytotoxic Effect (LDH) (%)
Report the value in % with no unit label.

[in] State measured Mean % Relative Cytotoxic Effect (LDH) of the compound CCCCC/C=C\C/C=C\C/C=C\C/C=C\CCCC(=O)O[C@H](COCCCCCCCCCCCCCCCC)COP(=O)([O-])OCC[N+](C)(C)C [C16-20:4 PC] with human-derived tracheal/bronchial epithelial cells (EpiAirway Tissue Model).
[out] 0

====

tested on: human-derived tracheal/bronchial epithelial cells (EpiAirway Tissue Model); experiment: Transepithelial electrical resistance (TER) of an epithelial cell monolayer; format: cell-based; conditions: Homo sapiens, Epithelial cell, 1 h; lipid 1000 μM; lower value = greater TER reduction (Table 4); read-out: Mean % of Original TER Value
METRIC NAME: activity at 1000 µM (%)
Report the value in % with no unit label.

Field: example entries. Status: answers known.
# COMPOUND, TESTED TARGET, REPORTED RESULT
rows = [
    ("CCCCCCCCCCCCCCCCOC[C@@H](COP(=O)([O-])OCC[N+](C)(C)C)OC(C)=O [C16 Enantiomeric PAF]", "human-derived tracheal/bronchial epithelial cells (EpiAirway Tissue Model)", 1),
    ("CCCCCCCCCCCCCCCCCCOC[C@H](COP(=O)([O-])OCC[N+](C)(C)C)OC(C)=O [C18-02:0 PC(C18 PAF)]", "human-derived tracheal/bronchial epithelial cells (EpiAirway Tissue Model)", 1),
    ("CCCCCCCCCCCCCCCCOC[C@H](COP(=O)([O-])OCC[N+](C)(C)C)OC(=O)CCCCCCCC(=O)O [Azelaoyl PAF (C16-09:0)]", "human-derived tracheal/bronchial epithelial cells (EpiAirway Tissue Model)", -5),
    ("CCCCC/C=C\\C/C=C\\C/C=C\\C/C=C\\CCCC(=O)O[C@H](COCCCCCCCCCCCCCCCC)COP(=O)([O-])OCC[N+](C)(C)C [C16-20:4 PC]", "human-derived tracheal/bronchial epithelial cells (EpiAirway Tissue Model)", 96),
    ("CCCCCCCCCCCCCCCC(=O)OC[C@H](COP(=O)([O-])OCC[N+](C)(C)C)OC(=O)CCCC=O [POVPC]", "human-derived tracheal/bronchial epithelial cells (EpiAirway Tissue Model)", 0),
]

[in] State measured activity at 1000 µM of the compound CCCCCCCCCCCCCCCCOC[C@@H](O)COP(=O)([O-])OCC[N+](C)(C)C [C16 Lyso-PAF] with human-derived tracheal/bronchial epithelial cells (EpiAirway Tissue Model).
[out] 14

[in] State measured activity at 1000 µM of the compound CCCCCCCCCCCCCCCCCCOC[C@H](COP(=O)([O-])OCC[N+](C)(C)C)OC [18:0-1:0 Diether PC] with human-derived tracheal/bronchial epithelial cells (EpiAirway Tissue Model).
[out] 111

====

Measured Mean TER Reduction 1 hr. Post-treatment, listed per entry.
tested on: human-derived tracheal/bronchial epithelial cells (EpiAirway Tissue Model); test: Transepithelial electrical resistance (TER) of an epithelial cell monolayer; format: cell-based; details: lipid 500 μM
Report the value in % with no unit label.

[in] State measured Mean TER Reduction 1 hr. Post-treatment of the molecule `CCCCCCCCCCCCC/C=C/[C@@H](O)[C@@H](N)CO[C@@H]1O[C@H](CO)[C@H](O)[C@H](O)[C@H]1O` with human-derived tracheal/bronchial epithelial cells (EpiAirway Tissue Model).
[out] 42

[in] State measured Mean TER Reduction 1 hr. Post-treatment of the molecule `CCCCCCCCCCCCCCCCOC[C@H](COP(=O)([O-])OCC[N+](C)(C)C)OC(=O)CCCCCCCC(=O)O` with human-derived tracheal/bronchial epithelial cells (EpiAirway Tissue Model).
[out] 93

[in] State measured Mean TER Reduction 1 hr. Post-treatment of the molecule CCCCCCCCCCCCC/C=C/[C@@H](O)[C@H](COP(=O)(O)O)NC(C)=O.N [N-acetoyl ceramide-1-phosphate] with human-derived tracheal/bronchial epithelial cells (EpiAirway Tissue Model).
[out] 29

[in] State measured Mean TER Reduction 1 hr. Post-treatment of the molecule `CCCCCCCCCCCCCCCCCCOC[C@H](COP(=O)([O-])OCC[N+](C)(C)C)OC` with human-derived tracheal/bronchial epithelial cells (EpiAirway Tissue Model).
[out] 89

[in] State measured Mean TER Reduction 1 hr. Post-treatment of the molecule `CCCCCCCCCCCCCCCC(=O)OC[C@H](COP(=O)([O-])OCC[N+](C)(C)C)OC(=O)CCCCCCCC(=O)O` with human-derived tracheal/bronchial epithelial cells (EpiAirway Tissue Model).
[out] 92

[in] State measured Mean TER Reduction 1 hr. Post-treatment of the molecule `CCCCCCCCCCCCCCCC(=O)OC[C@H](COP(=O)([O-])OCC[N+](C)(C)C)OC(=O)CCCC=O` with human-derived tracheal/bronchial epithelial cells (EpiAirway Tissue Model).
[out] 87

[in] State measured Mean TER Reduction 1 hr. Post-treatment of the molecule `CCCCCCCCCCCCCCCC(=O)OC[C@H](COP(=O)([O-])OCC[N+](C)(C)C)OC(=O)CCCC(=O)O` with human-derived tracheal/bronchial epithelial cells (EpiAirway Tissue Model).
[out] 80

====

System: human-derived tracheal/bronchial epithelial cells (EpiAirway Tissue Model)
Experiment: in vitro
Settings: lipid 1000 μM (Table 4)
Method: Normal, human-derived tracheal/bronchial epithelial cells will serve as the model cell system for assessing the lipids listed in Table 1. The cells are supplied by MatTek Corp. (Ashland, Mass.) as the EpiAirway™ Tissue Model. […] The amount of cell death was assayed by measuring the loss of lactate dehydrogenase (LDH) from the cells using a CytoTox 96 Cytotoxicity Assay Kit (Promega Corp., Madison, Wis.). […] Total LDH levels were determined by lysing cells in a final concentration of 0.9% Triton-X100™. […]
Measured Mean % Relative Cytotoxic Effect (LDH), listed per entry.
Report the value in % with no unit label.

Field: example entries. Status: answers known.
# COMPOUND, REPORTED RESULT
measured = [
    ("CCCCCCCCCCCCCCCC(=O)OC[C@H](COP(=O)([O-])OCC[N+](C)(C)C)OC(C)=O", 23),
    ("CCCCCCCCCCCCCCCCOC[C@@H](O)COP(=O)([O-])OCC[N+](C)(C)C", 26),
    ("CCCCCCCCCCCCCCCCOC[C@@H](COP(=O)([O-])OCC[N+](C)(C)C)OC(C)=O [C16 Enantiomeric PAF]", 35),
    ("CCCCCCCCCCCCCCCCOC[C@H](COP(=O)([O-])OCCCCCC[N+](C)(C)C)OC(C)=O", 10),
    ("CC/C=C\\C/C=C\\C/C=C\\C/C=C\\C/C=C\\C/C=C\\CCC(=O)O[C@H](COCCCCCCCCCCCCCCCC)COP(=O)([O-])OCC[N+](C)(C)C", "−1"),
]

[in] // fetch Mean % Relative Cytotoxic Effect (LDH) given entry `CCCCCCCCCCCCCCCCOC[C@H](COP(=O)([O-])OCC[N+](C)(C)C)OC(C)=O`
[out] 32

[in] // fetch Mean % Relative Cytotoxic Effect (LDH) given entry `CCCCCCCCCCCCCCCCOC[C@H](COP(=O)(O)OCC[N+](C)(C)C)OC`
[out] 20

[in] // fetch Mean % Relative Cytotoxic Effect (LDH) given entry `CCCCCCCCCCCCCCCCOC[C@H](COP(=O)(O)OCC[N+](C)(C)C)OCC`
[out] 2

[in] // fetch Mean % Relative Cytotoxic Effect (LDH) given entry `CCCCCCCCCCCCCCCCOC[C@H](COP(=O)([O-])OCC[N+](C)(C)C)OC(=O)NC`
[out] 15

[in] // fetch Mean % Relative Cytotoxic Effect (LDH) given entry `CC/C=C\C/C=C\C/C=C\C/C=C\C/C=C\CCCC(=O)O[C@H](COCCCCCCCCCCCCCCCC)COP(=O)([O-])OCC[N+](C)(C)C`
[out] −1

[in] // fetch Mean % Relative Cytotoxic Effect (LDH) given entry `CCCCCCCCCCCCCCCC(=O)OC[C@H](COP(=O)([O-])OCC[N+](C)(C)C)OC(=O)CCCC=O`
[out] 9

====

Measured % FITC-Dextran Permeation FD70, listed per entry.
system: human-derived tracheal/bronchial epithelial cells (EpiAirway Tissue Model); assay: FITC-Dextran permeation assay across epithelial cell monolayer; format: cell-based; conditions: lipid 1000 μM
Report the value in % with no unit label.

Field: example entries. Status: answers known.
# MOLECULE, % FITC-Dextran Permeation FD70 [%]
records = [
    ("CCCCCCCCCCCCCCCC(=O)OC[C@H](COP(=O)([O-])OCC[N+](C)(C)C)OC(=O)CCCC=O [POVPC]", 0.3),
    ("CCCCCCCCCCCCCCCCCCOC[C@H](COP(=O)([O-])OCC[N+](C)(C)C)OC(C)=O [C18-02:0 PC(C18 PAF)]", 2),
    ("C=CCC(=O)O[C@H](COCCCCCCCCCCCCCCCC)COP(=O)([O-])OCC[N+](C)(C)C [C16-04:1 PC]", 0),
    ("CCCCCCCCCCCCCCCCOC[C@@H](COP(=O)([O-])OCC[N+](C)(C)C)OC(C)=O [C16 Enantiomeric PAF]", 1),
]

With those in mind, consider the next molecule.
[in] State measured % FITC-Dextran Permeation FD70 of the molecule CCCCCCCCCCCCCCCCOC[C@H](COP(=O)([O-])OCC[N+](C)(C)C)OC(C)=O [C16-02:0 PC(C16 PAF)] with human-derived tracheal/bronchial epithelial cells (EpiAirway Tissue Model).
[out] 2
